Where these numbers come from: patent US11814364B2

Entries annotated with measured IC50
TEST_TARGET: human plasma kallikrein (Homo sapiens)
Sequence (P03952 391-638 limits assumed): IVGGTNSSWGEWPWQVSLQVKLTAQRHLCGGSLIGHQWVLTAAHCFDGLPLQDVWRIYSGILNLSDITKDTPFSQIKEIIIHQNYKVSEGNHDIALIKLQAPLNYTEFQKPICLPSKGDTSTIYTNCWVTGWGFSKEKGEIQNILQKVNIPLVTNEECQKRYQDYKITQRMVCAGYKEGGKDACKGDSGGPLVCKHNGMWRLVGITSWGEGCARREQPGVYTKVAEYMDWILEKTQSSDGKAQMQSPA
Sequence (P03952 20-390 partner limits assumed): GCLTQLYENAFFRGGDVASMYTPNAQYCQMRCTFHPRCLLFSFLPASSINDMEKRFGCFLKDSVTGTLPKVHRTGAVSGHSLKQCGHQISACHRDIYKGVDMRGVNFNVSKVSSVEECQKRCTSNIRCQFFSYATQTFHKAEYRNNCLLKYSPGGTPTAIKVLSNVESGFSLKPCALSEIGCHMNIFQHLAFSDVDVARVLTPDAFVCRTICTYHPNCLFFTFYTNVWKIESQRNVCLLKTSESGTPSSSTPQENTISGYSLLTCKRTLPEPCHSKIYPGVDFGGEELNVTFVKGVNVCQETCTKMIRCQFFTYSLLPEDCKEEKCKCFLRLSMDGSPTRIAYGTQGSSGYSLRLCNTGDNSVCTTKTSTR
ASSAY: Kallikrein inhibition FLINT assay with quenched AMC peptide substrate Z-Gly-Pro-Arg-AMC (end point EP or kinetic KIN reads)
Type: biochemical
MEASUREMENT_CONDITIONS: kinetic reads at 5 min intervals over 30 min; read-out: Kallikrein (KIN) IC50
PROPERTY_NAME: IC50 (nM)

1. Cn1ncnc1-c1cnn([C@H](CCOC(F)F)c2ccc(-c3c(-n4cc(Cl)nn4)ccc(Cl)c3F)c[n+]2[O-])c1	39.6
2. [O-][n+]1ccc(-c2cnn(C(CCOC(F)F)c3ccc(-c4c(-n5cnnn5)ccc(Cl)c4F)c[n+]3[O-])c2)c(F)c1 (single isomer, unassigned)	14.8
3. COC(=O)Nc1ccc(-c2cnn(C(Cc3ccccc3)c3ccc(-c4c(-n5cnnn5)ccc(Cl)c4F)c[n+]3[O-])c2)cc1 (stereo not drawn)	7.5

----------
TEST_TARGET: human plasma kallikrein (Homo sapiens)
ASSAY: Kallikrein inhibition FLINT assay with quenched AMC peptide substrate Z-Gly-Pro-Arg-AMC (end point EP or kinetic KIN reads)
Format: biochemical
MEASUREMENT_CONDITIONS: kinetic reads at 5 min intervals over 30 min; read-out: Kallikrein (KIN) IC50
Entries annotated with measured IC50
PROPERTY_NAME: IC50 (nM)

1. COCC[C@H](c1ccc(-c2c(-n3cnnn3)ccc(Cl)c2F)c[n+]1[O-])n1cc(-c2ccn(C(F)F)n2)cn1	102
2. COCc1ccnn1CC(c1ccc(-c2c(-n3cnnn3)ccc(Cl)c2F)c[n+]1[O-])n1cc(-c2ccc(N)nc2F)cn1 (stereo not drawn)	57.9
3. [O-][n+]1cc(-c2c(-n3cc(Cl)nn3)ccc(Cl)c2F)ccc1[C@@H](Cn1cc(F)cn1)n1cc(-c2c(F)cnn2C(F)F)cn1	66.2

----------
TEST_TARGET: human plasma kallikrein (Homo sapiens)
ASSAY: Kallikrein inhibition FLINT assay with quenched AMC peptide substrate Z-Gly-Pro-Arg-AMC (end point EP or kinetic KIN reads)
Assay type: biochemical
MEASUREMENT_CONDITIONS: kinetic reads at 5 min intervals over 30 min; read-out: Kallikrein (KIN) IC50
Label yes when IC50 is strictly below 0.03 µM; at or above that, label no.

1) Cn1nc(C(F)(F)F)cc1-c1cnn(C(CC2CC2)c2ccc(-c3c(-n4cnnn4)ccc(Cl)c3F)c[n+]2[O-])c1 (stereo not drawn) [Example P548]	no
2) NC(=O)c1ccc(-c2cnn(C(CC3CC3)c3ccc(-c4c(-n5cc(C(F)(F)F)nn5)ccc(Cl)c4F)c[n+]3[O-])c2)s1 (stereo not drawn) [Example P904]	no
3) O=C(O)c1ccc(-c2cnn(C(Cc3ccccc3)c3ccc(-c4c(OCC(F)(F)F)ccc(Cl)c4F)c[n+]3[O-])c2)cc1 (stereo not drawn) [Example Q4]	no
4) CC(C)c1cc(-c2cnn(C(Cn3cc(F)cn3)c3ccc(-c4c(-n5cnnn5)ccc(Cl)c4F)c[n+]3[O-])c2)cc[n+]1[O-] (single isomer, unassigned) [Example P413]	yes
5) COc1cc(C(CC2CC2)n2cc(-c3ccnn3C)cn2)[n+]([O-])cc1-c1c(-n2cnnn2)ccc(Cl)c1F (single isomer, unassigned) [Example P490]	yes
6) O=C(O)c1ccc(-c2cnn(C(Cc3ccn(C(F)F)n3)c3ccc(-c4c(C(F)F)ccc(Cl)c4F)c[n+]3[O-])c2)cc1 (single isomer, unassigned) [Example Q71]	yes
7) COC(=O)N(C)CC(c1ccc(-c2c(-n3cnnn3)ccc(Cl)c2F)c[n+]1[O-])n1cc(-c2ccnc(F)c2)cn1 (single isomer, unassigned) [Example P355]	no
8) Cn1ncnc1-c1cnn(C(CCOC(F)F)c2ccc(-c3c(-n4cc(C(F)(F)F)nn4)ccc(Cl)c3F)c[n+]2[O-])c1 (stereo not drawn) [Example P757]	no
9) Cn1nnc(-c2cnn([C@H](CCOC(F)F)c3ccc(-c4c(-n5cc(Cl)nn5)ccc(Cl)c4F)c[n+]3[O-])c2)c1F [Example P705]	no
10) [O-][n+]1cc(-c2c(-n3cnnn3)ccc(Cl)c2F)ccc1C(Cn1cc(C(F)(F)F)cn1)n1cc(-c2ccnc(F)c2)cn1 (stereo not drawn) [Example P331]	yes
11) [O-][n+]1cc(-c2c(-n3cnnn3)ccc(Cl)c2F)ccc1C(CC1CC1)n1cc(-c2cnnn2C2CC2)cn1 (stereo not drawn) [Example P524]	no
